# Test system: Escherichia coli TOP10
# method description: shrunken log2 fold change of peptide-encoding DNA abundance (4.5 h post-induction vs induction); higher = less antimicrobial activity (less host growth inhibition)
# condition set: time post-induction: 4.5 h; library: site-saturation at positions 5, 18, 19, 20
Class yes: shrunken log2 fold change at least -0.1. Class no: shrunken log2 fold change below -0.1.

{"seq string": "RRIRVRPPRLPRPRPRPQKYPRP", "assigned label": "no"}
{"seq string": "RRIRARPPRLPRPRPRPTVNPRP", "assigned label": "yes"}

Req: # bool: shrunken log2 fold change of RRIRNRPPRLPRPRPRPNSCPRP >= -0.1
Resp: no

Req: # bool: shrunken log2 fold change of RRIRPRPPRLPRPRPRPGICPRP >= -0.1
Resp: yes

Req: # bool: shrunken log2 fold change of RRIRFRPPRLPRPRPRPMPVPRP >= -0.1
Resp: yes

Req: # bool: shrunken log2 fold change of RRIRSRPPRLPRPRPRPLGKPRP >= -0.1
Resp: yes

Req: # bool: shrunken log2 fold change of RRIRVRPPRLPRPRPRPRFWPRP >= -0.1
Resp: yes

Req: # bool: shrunken log2 fold change of RRIRNRPPRLPRPRPRPTVGPRP >= -0.1
Resp: yes

Req: # bool: shrunken log2 fold change of RRIRVRPPRLPRPRPRPHWIPRP >= -0.1
Resp: no

Req: # bool: shrunken log2 fold change of RRIRKRPPRLPRPRPRPAPTPRP >= -0.1
Resp: yes

Req: # bool: shrunken log2 fold change of RRIRRRPPRLPRPRPRPRRQPRP >= -0.1
Resp: yes

Req: # bool: shrunken log2 fold change of RRIRPRPPRLPRPRPRPPYAPRP >= -0.1
Resp: yes

Req: # bool: shrunken log2 fold change of RRIRSRPPRLPRPRPRPGCFPRP >= -0.1
Resp: yes

Req: # bool: shrunken log2 fold change of RRIRIRPPRLPRPRPRPVVQPRP >= -0.1
Resp: no

Req: # bool: shrunken log2 fold change of RRIRARPPRLPRPRPRPFYNPRP >= -0.1
Resp: no

Req: # bool: shrunken log2 fold change of RRIRDRPPRLPRPRPRPTYYPRP >= -0.1
Resp: no

Req: # bool: shrunken log2 fold change of RRIRVRPPRLPRPRPRPVRWPRP >= -0.1
Resp: yes

Req: # bool: shrunken log2 fold change of RRIRGRPPRLPRPRPRPWFFPRP >= -0.1
Resp: yes

---

# Test system: Escherichia coli TOP10;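 further: peptides expressed intracellularly from a pBAD plasmid library in pooled LB shake-flask culture, induced with 0.3% L-arabinose, DNA abundance read by NGS, three biological replicates, DESeq2 with apeglm shrinkage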
# method description: shrunken log2 fold change of peptide-encoding DNA abundance (4.5 h post-induction vs induction); higher = less antimicrobial activity (less host growth inhibition)
# condition set: time post-induction: 4.5 h; library: site-saturation at positions 5, 18, 19, 20
Class yes: shrunken log2 fold change at least -0.07. Class no: shrunken log2 fold change below -0.07.

Some solved cases for reference:
{"seq string": "RRIRHRPPRLPRPRPRPWWDPRP", "target entity": "Escherichia coli TOP10", "assigned label": "yes"}
{"seq string": "RRIRLRPPRLPRPRPRPTQAPRP", "target entity": "Escherichia coli TOP10", "assigned label": "yes"}
{"seq string": "RRIRSRPPRLPRPRPRPMTYPRP", "target entity": "Escherichia coli TOP10", "assigned label": "yes"}
{"seq string": "RRIRHRPPRLPRPRPRPHRQPRP", "target entity": "Escherichia coli TOP10", "assigned label": "yes"}
{"seq string": "RRIRHRPPRLPRPRPRPFNLPRP", "target entity": "Escherichia coli TOP10", "assigned label": "no"}
{"seq string": "RRIRWRPPRLPRPRPRPDTFPRP", "target entity": "Escherichia coli TOP10", "assigned label": "yes"}
{"seq string": "RRIRWRPPRLPRPRPRPPVQPRP", "target entity": "Escherichia coli TOP10", "assigned label": "yes"}
{"seq string": "RRIRQRPPRLPRPRPRPRYGPRP", "target entity": "Escherichia coli TOP10", "assigned label": "no"}

Req: # bool: shrunken log2 fold change of RRIRRRPPRLPRPRPRPWGDPRP >= -0.07
Resp: no

Req: # bool: shrunken log2 fold change of RRIRGRPPRLPRPRPRPELSPRP >= -0.07
Resp: yes

Req: # bool: shrunken log2 fold change of RRIRYRPPRLPRPRPRPIPMPRP >= -0.07
Resp: no

Req: # bool: shrunken log2 fold change of RRIRERPPRLPRPRPRPDYCPRP >= -0.07
Resp: yes

Req: # bool: shrunken log2 fold change of RRIRKRPPRLPRPRPRPCYLPRP >= -0.07
Resp: no

Req: # bool: shrunken log2 fold change of RRIRSRPPRLPRPRPRPPNMPRP >= -0.07
Resp: no

Req: # bool: shrunken log2 fold change of RRIRLRPPRLPRPRPRPQCEPRP >= -0.07
Resp: no

Req: # bool: shrunken log2 fold change of RRIRIRPPRLPRPRPRPTQNPRP >= -0.07
Resp: yes

Req: # bool: shrunken log2 fold change of RRIRNRPPRLPRPRPRPVPFPRP >= -0.07
Resp: yes

Req: # bool: shrunken log2 fold change of RRIRVRPPRLPRPRPRPNGSPRP >= -0.07
Resp: yes

Req: # bool: shrunken log2 fold change of RRIRKRPPRLPRPRPRPKKIPRP >= -0.07
Resp: yes

Req: # bool: shrunken log2 fold change of RRIRCRPPRLPRPRPRPMKIPRP >= -0.07
Resp: yes

Req: # bool: shrunken log2 fold change of RRIRLRPPRLPRPRPRPHYGPRP >= -0.07
Resp: no

Req: # bool: shrunken log2 fold change of RRIRARPPRLPRPRPRPFNMPRP >= -0.07
Resp: no

Req: # bool: shrunken log2 fold change of RRIRFRPPRLPRPRPRPCDGPRP >= -0.07
Resp: yes
